Recorded values, source patent US20240239885A1.

# Test system: HCC-1954 cells
# Assay Overview: Cytotoxicity assay of ADC (Cell Titer Glo) on HCC-1954
# Experimental Conditions: read-out: IC50 (nM), ADC cytotoxicity; HCC-1954, 5 days
Non-standard residues stand in square brackets, D forms with d. Residues, ends and D or L forms follow the SMILES beside them. *: point of attachment. Dolaproine = CO[C@@H]([C@@H]1CCCN1)[C@@H](C)C(=O)O; Dil = CC[C@H](C)[C@H](NC)[C@@H](CC(=O)O)OC; X1 = C[C@@H](N*)[C@@H](O)c1ccccc1; NMeV = CN[C@H](C(=O)O)C(C)C
Test Readout: IC50 (nM)
A number alone suffices; assume nM.

# IC50 of CC[C@H](C)[C@@H]([C@@H](CC(=O)N1CCC[C@H]1[C@H](OC)[C@@H](C)C(=O)N[C@H](C)[C@@H](O)c1ccccc1)OC)N(C)C(=O)[C@@H](NC(=O)[C@@H](NC)C(C)C)C(C)C [Free drug (MMAE), mono-methyl auristatin E] (H-[NMeV]V[Dil][Dolaproine]-X1) = 0.05

* * *

# Test system: HT-29 cells
# Assay Overview: Cytotoxicity assay of ADC (Cell Titer Glo) on HT-29
# Experimental Conditions: read-out: IC50 (nM), ADC cytotoxicity; HT-29 (P-cadherin low expressing), 5 days
Non-standard residues stand in square brackets, D forms with d. Residues, ends and D or L forms follow the SMILES beside them. *: point of attachment. Dolaproine = CO[C@@H]([C@@H]1CCCN1)[C@@H](C)C(=O)O; Dil = CC[C@H](C)[C@H](NC)[C@@H](CC(=O)O)OC; X1 = C[C@@H](N*)[C@@H](O)c1ccccc1; NMeV = CN[C@H](C(=O)O)C(C)C
Test Readout: IC50 (nM)
A number alone suffices; assume nM.

# IC50 of CC[C@H](C)[C@@H]([C@@H](CC(=O)N1CCC[C@H]1[C@H](OC)[C@@H](C)C(=O)N[C@H](C)[C@@H](O)c1ccccc1)OC)N(C)C(=O)[C@@H](NC(=O)[C@@H](NC)C(C)C)C(C)C [Free drug (MMAE), mono-methyl auristatin E] (H-[NMeV]V[Dil][Dolaproine]-X1) = 0.52

* * *

# Test system: NCI-H1650 cells
# Assay Overview: Cytotoxicity assay of ADC (Cell Titer Glo) on NCI-H1650
# Assay type: cell-based, human
# Experimental Conditions: NCI-H1650, 5 days
Starred links: 1 amine or outer side, 2 acyl side, 3 side chain; linkers in the order of their positions; H or OH if unused. Non-standard residues stand in square brackets, D forms with d. Residues, ends and D or L forms follow the SMILES beside them. *: point of attachment. Dolaproine = CO[C@@H]([C@@H]1CCCN1)[C@@H](C)C(=O)O; Hexanoyl(6-maleimido) = O=C1C=CC(=O)N1CCCCCC(=O)*; Dil = CC[C@H](C)[C@H](NC)[C@@H](CC(=O)O)OC; PABC = O=C(OCc1ccc(N[*:1])cc1)[*:2]; X1 = C[C@@H](N*)[C@@H](O)c1ccccc1; Cit = NC(=O)NCCC[C@H](N)C(=O)O; NMeV = CN[C@H](C(=O)O)C(C)C
Test Readout: IC50

# IC50 of CC[C@H](C)[C@@H]([C@@H](CC(=O)N1CCC[C@H]1[C@H](OC)[C@@H](C)C(=O)N[C@H](C)[C@@H](O)c1ccccc1)OC)N(C)C(=O)[C@@H](NC(=O)[C@H](C(C)C)N(C)C(=O)OCc1ccc(NC(=O)[C@H](CCCNC(N)=O)NC(=O)[C@@H](NC(=O)CCCCCN2C(=O)C=CC2=O)C(C)C)cc1)C(C)C [Free payload control (MC-VC-PAB-MMAE), MC-VC-PAB-MMAE] ({Hexanoyl(6-maleimido)}-V[Cit][PABC][NMeV]V[Dil][Dolaproine]-X1) = > 10 nM
